target_desc: RNF31 PUB domain (Homo sapiens, UniProt Q96EP0)
Construct: MBP-TEV (N, cleaved yes); made in house; host or cells: E. coli BL21 (DE3) pLysS
Sequence (Q96EP0 1-179): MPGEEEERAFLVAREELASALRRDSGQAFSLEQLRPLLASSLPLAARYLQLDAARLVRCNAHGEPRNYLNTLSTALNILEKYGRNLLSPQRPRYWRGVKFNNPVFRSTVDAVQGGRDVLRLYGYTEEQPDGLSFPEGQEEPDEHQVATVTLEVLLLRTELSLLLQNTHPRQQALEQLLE
method_notes: Phage Library Screening with NGS, RNF31 PUB domain
Type: binding
condition_info: RNF31 PUB domain clusters C41-C45; target concentration 1000, second column
assay_readout: Phage library screen NGS readout, Target Concentration 1000

DPAWTQCDWAALYCEDQ : 10
DPAFWACLYAAEECVVD : 9
DPAWWNCLYAAYECNHA : 5
DPAIWECVSAAAVCMTY : 7

A: DPAYEDCAWAALYCDMT
B: DPAWTDCDWAALYCEFQ
Endpoint returns the identifier whose Phage library screen NGS readout, Target Concentration 1000 is numerically larger, either A or B . # reply format: chosen label
A
(A: 64, B: 6)

I: DPAIAQCMLAAQVCSTY
II: DPADWDCMYAAQDCFED
III: DPAWLDCIYAAYDCVTD
IV: DPAHDWCLYAAYDCRVY
V: DPANFTCRVAADVCSTY
Order the 5 sequences from highest to lowest Phage library screen NGS readout, Target Concentration 1000. Please respond by ranking the labels in the order requested.
I, V, IV, III, II

I: DPAFHDCQFAAAVCSTY
II: DPAQYQCDIAAQVCSTY
Please state the entry with greater Phage library screen NGS readout, Target Concentration 1000 among I and II . Kindly state the label of the option you pick.
I

1: DPAWTDCDWAALYCDES
2: DPAWMDCLYAAYDCQHM
Which of the two gives a bigger number for Phage library screen NGS readout, Target Concentration 1000: 1 or 2 ? Reply briefly: the label of your chosen item.
2
(2: 24, 1: 4)
